Molecular target: Cytochrome P450 2C9 (Homo sapiens)
Sequence (P11712 whole entry): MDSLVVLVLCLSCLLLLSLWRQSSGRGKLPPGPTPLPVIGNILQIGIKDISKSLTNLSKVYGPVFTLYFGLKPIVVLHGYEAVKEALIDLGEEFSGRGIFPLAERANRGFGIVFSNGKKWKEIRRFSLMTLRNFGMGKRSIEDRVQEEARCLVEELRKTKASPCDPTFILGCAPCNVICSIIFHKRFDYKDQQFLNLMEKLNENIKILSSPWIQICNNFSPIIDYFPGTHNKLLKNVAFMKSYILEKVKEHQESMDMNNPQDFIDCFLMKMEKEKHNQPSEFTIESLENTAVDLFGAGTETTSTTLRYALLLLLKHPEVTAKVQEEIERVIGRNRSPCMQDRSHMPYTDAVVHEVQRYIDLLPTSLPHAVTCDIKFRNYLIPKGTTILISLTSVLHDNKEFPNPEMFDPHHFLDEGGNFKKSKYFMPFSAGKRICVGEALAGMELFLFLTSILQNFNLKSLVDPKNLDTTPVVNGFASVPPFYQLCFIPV

{"structure.smiles.string": "Cc1nc(C)c([C@H](OC(C)(C)C)C(=O)O)c(N2CCC(C)(C)CC2)c1-c1ccc(OCCc2ccc(F)cc2)cc1", "assay.target": "Cytochrome P450 2C9 (Homo sapiens)", "IC50": "≥ 24.3 µM"}

* * *

Assay: Bioavailability in Beagle dog at 2 mg/kg, po by LC-MS/MS analysis
Assay type: ADME, organism-based, Canis lupus familiaris
Settings: in vivo
property.label: bioavailability (%)

{"structure.smiles.string": "Cc1nc(C)c([C@H](OC(C)(C)C)C(=O)O)c(N2CCC(C)(C)CC2)c1-c1ccc(OCCc2ccc(F)cc2)cc1", "endpoint.unit": "%", "observed.value": 75}

* * *

Biological target: Cytochrome P450 3A4 (Homo sapiens, UniProt P08684)
Sequence (P08684 whole entry): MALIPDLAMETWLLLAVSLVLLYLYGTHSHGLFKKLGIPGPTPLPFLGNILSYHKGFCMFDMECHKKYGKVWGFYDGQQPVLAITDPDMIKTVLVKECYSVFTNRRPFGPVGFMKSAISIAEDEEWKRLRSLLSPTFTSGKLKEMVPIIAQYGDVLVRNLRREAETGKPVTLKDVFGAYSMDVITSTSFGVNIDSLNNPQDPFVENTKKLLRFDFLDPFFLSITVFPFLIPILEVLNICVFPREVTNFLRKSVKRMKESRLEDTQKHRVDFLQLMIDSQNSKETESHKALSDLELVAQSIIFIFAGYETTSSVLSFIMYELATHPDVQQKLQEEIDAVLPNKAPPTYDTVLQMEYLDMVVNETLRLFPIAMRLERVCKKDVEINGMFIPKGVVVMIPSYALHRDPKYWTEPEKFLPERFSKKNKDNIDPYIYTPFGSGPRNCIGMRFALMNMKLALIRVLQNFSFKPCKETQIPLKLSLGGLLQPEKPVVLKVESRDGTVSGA
property.label: IC50

{"structure.smiles.string": "Cc1nc(C)c([C@H](OC(C)(C)C)C(=O)O)c(N2CCC(C)(C)CC2)c1-c1ccc(OCCc2ccc(F)cc2)cc1", "assay.target": "Cytochrome P450 3A4 (Homo sapiens, UniProt P08684)", "property.label": "IC50", "observed.value": "≥ 24.3 µM"}

* * *

Test: Permeability of the compound at pH 5.5 by PAMPA assay
Assay type: ADME
Settings: read-out: permeability

{"structure.smiles.string": "Cc1nc(C)c([C@H](OC(C)(C)C)C(=O)O)c(N2CCC(C)(C)CC2)c1-c1ccc(OCCc2ccc(F)cc2)cc1", "Papp, ×10⁻⁶ cm/s": 89.6}

* * *

Test: Tmax in cynomolgus monkey at 2 mg/kg, po by LC-MS/MS analysis
Type: ADME, organism-based, Macaca fascicularis
Conditions: in vivo

{"structure.smiles.string": "Cc1nc(C)c([C@H](OC(C)(C)C)C(=O)O)c(N2CCC(C)(C)CC2)c1-c1ccc(OCCc2ccc(F)cc2)cc1", "Tmax, h": 2}

* * *

Assay: Metabolic stability in human liver microsome assessed half life at 0.5 uM by LC-MS/MS analysis
Assay type: ADME
Settings: liver microsomes

{"molecule": "Cc1nc(C)c([C@H](OC(C)(C)C)C(=O)O)c(N2CCC(C)(C)CC2)c1-c1ccc(NCCc2ccc(F)cc2)cc1", "half-life at 0.5 µM": "41 min"}
{"molecule": "Cc1ccc(CCOc2ccc(-c3c(C)nc(C)c([C@H](OC(C)(C)C)C(=O)O)c3N3CCC(C)(C)CC3)cc2)s1", "half-life at 0.5 µM": "> 120 min"}
{"molecule": "Cc1nc(C)c([C@H](OC(C)(C)C)C(=O)O)c(N2CCC(C)(C)CC2)c1-c1ccc(OCCc2ccc(F)c(F)c2)cc1", "half-life at 0.5 µM": "> 120 min"}
{"molecule": "COc1ccc(CCOc2ccc(-c3c(C)nc(C)c([C@H](OC(C)(C)C)C(=O)O)c3N3CCC(C)(C)CC3)cc2)cc1", "half-life at 0.5 µM": "> 120 min"}
{"molecule": "Cc1nc(C)c([C@H](OC(C)(C)C)C(=O)O)c(N2CCC(C)(C)CC2)c1-c1ccc(OC2COCC2c2ccc(F)cc2)cc1 (stereo in doubt; 40b)", "half-life at 0.5 µM": "47 min"}
{"molecule": "Cc1nc(CCOc2ccc(-c3c(C)nc(C)c([C@H](OC(C)(C)C)C(=O)O)c3N3CCC(C)(C)CC3)cc2)cs1", "half-life at 0.5 µM": "41 min"}
{"molecule": "Cc1nc(C)c([C@H](OC(C)(C)C)C(=O)O)c(N2CCC(C)(C)CC2)c1-c1ccc(CCCc2ccc(F)cc2)cc1", "half-life at 0.5 µM": "> 120 min"}

* * *

Test: Plasma protein binding in rat
Format: ADME, cell-free
Conditions: read-out: PPB (converted)

{"structure.smiles.string": "Cc1nc(C)c([C@H](OC(C)(C)C)C(=O)O)c(N2CCC(C)(C)CC2)c1-c1ccc(OCCc2ccc(F)cc2)cc1", "fraction unbound": 0.19}

* * *

Experiment: Elimination half life in Cynomolgus monkey at 1 mg/kg, iv by LC-MS/MS analysis
Format: ADME, organism-based, Macaca fascicularis
Conditions: in vivo, read-out: beta t1/2 (converted)

{"structure.smiles.string": "Cc1nc(C)c([C@H](OC(C)(C)C)C(=O)O)c(N2CCC(C)(C)CC2)c1-c1ccc(OCCc2ccc(F)cc2)cc1", "half-life": "2.4 h"}

* * *

molecules and their reported CC50 at 96 h
Test: Cytotoxicity against human MT2 cells assessed as cell viability measured after 4 days by XTT assay
Format: toxicity, cell-based
Details: time 4 day

{"molecule": "Cc1nc(C)c([C@H](OC(C)(C)C)C(=O)O)c(N2CCC(C)(C)CC2)c1-c1ccc(OCCc2ccc(F)c(F)c2)cc1", "CC50 at 96 h": "≥ 33.5 µM"}
{"molecule": "Cc1nc(C)c([C@H](OC(C)(C)C)C(=O)O)c(N2CCC(C)(C)CC2)c1-c1ccc(Cc2ccccc2)cc1", "CC50 at 96 h": "≥ 20 µM"}
{"molecule": "Cc1nc(C)c([C@H](OC(C)(C)C)C(=O)O)c(N2CCC(C)(C)CC2)c1-c1ccc(OCCc2ccccn2)cc1", "CC50 at 96 h": "≥ 25 µM"}
{"molecule": "Cc1nc(C)c([C@H](OC(C)(C)C)C(=O)O)c(N2CCC(C)(C)CC2)c1-c1ccc(SCCc2ccc(F)cc2)cc1", "CC50 at 96 h": "≥ 32 µM"}
{"molecule": "Cc1nc(C)c([C@H](OC(C)(C)C)C(=O)O)c(N2CCC(C)(C)CC2)c1-c1ccc(OCCc2cc(F)c(F)cc2F)cc1", "CC50 at 96 h": "≥ 33.5 µM"}
{"molecule": "Cc1ncsc1CCOc1ccc(-c2c(C)nc(C)c([C@H](OC(C)(C)C)C(=O)O)c2N2CCC(C)(C)CC2)cc1", "CC50 at 96 h": "≥ 25 µM"}
{"molecule": "Cc1nc(CCOc2ccc(-c3c(C)nc(C)c([C@H](OC(C)(C)C)C(=O)O)c3N3CCC(C)(C)CC3)cc2)cs1", "CC50 at 96 h": "≥ 25 µM"}
{"molecule": "Cc1nc(C)c([C@H](OC(C)(C)C)C(=O)O)c(N2CCC(C)(C)CC2)c1-c1ccc(-c2ccccc2)cc1", "CC50 at 96 h": "≥ 20 µM"}
{"molecule": "Cc1nc(C)c([C@H](OC(C)(C)C)C(=O)O)c(N2CCC(C)(C)CC2)c1-c1ccc(NCCc2ccc(F)cc2)cc1", "CC50 at 96 h": "≥ 32 µM"}
{"molecule": "Cc1nc(C)c([C@H](OC(C)(C)C)C(=O)O)c(N2CCC(C)(C)CC2)c1-c1ccc(OC2COCC2c2ccc(F)cc2)cc1 (stereo in doubt; 40a)", "CC50 at 96 h": "≥ 32 µM"}
{"molecule": "Cc1ccc(CCOc2ccc(-c3c(C)nc(C)c([C@H](OC(C)(C)C)C(=O)O)c3N3CCC(C)(C)CC3)cc2)cc1", "CC50 at 96 h": "≥ 33.5 µM"}
{"molecule": "Cc1nc(C)c([C@H](OC(C)(C)C)C(=O)O)c(N2CCC(C)(C)CC2)c1-c1ccc(OCCc2cc(F)ccc2F)cc1", "CC50 at 96 h": "≥ 33.5 µM"}
{"molecule": "Cc1ccc(CCOc2ccc(-c3c(C)nc(C)c([C@H](OC(C)(C)C)C(=O)O)c3N3CCC(C)(C)CC3)cc2)s1", "CC50 at 96 h": "≥ 25 µM"}
{"molecule": "Cc1nc(C)c([C@H](OC(C)(C)C)C(=O)O)c(N2CCC(C)(C)CC2)c1-c1ccc(OCCCc2ccc(F)cc2)cc1", "CC50 at 96 h": "≥ 32 µM"}
{"molecule": "Cc1nc(C)c([C@H](OC(C)(C)C)C(=O)O)c(N2CCC(C)(C)CC2)c1-c1ccc(OCCc2ccc(F)cc2)cc1", "CC50 at 96 h": "≥ 33.5 µM"}

* * *

Assay: Cytotoxicity against human MT2 cells assessed as cell viability measured after 4 days by XTT assay
Type: toxicity, cell-based
Details: time 4 day
property.label: CC50 at 96 h

{"molecule": "Cc1nc(C)c([C@H](OC(C)(C)C)C(=O)O)c(N2CCC(C)(C)CC2)c1-c1ccc(OCCc2ccncc2)cc1", "observed.value": "≥ 25 µM"}
{"molecule": "Cc1nc(C)c([C@H](OC(C)(C)C)C(=O)O)c(N2CCC(C)(C)CC2)c1-c1ccc(OCCc2ccc(Cl)cc2)cc1", "observed.value": "≥ 33.5 µM"}
{"molecule": "Cc1nc(C)c([C@H](OC(C)(C)C)C(=O)O)c(N2CCC(C)(C)CC2)c1-c1ccc(OC2CCCC2c2ccc(F)cc2)cc1 (stereo in doubt; 39a)", "observed.value": "≥ 32 µM"}
{"molecule": "Cc1noc(C)c1CCOc1ccc(-c2c(C)nc(C)c([C@H](OC(C)(C)C)C(=O)O)c2N2CCC(C)(C)CC2)cc1", "observed.value": "≥ 25 µM"}
{"molecule": "Cc1nc(C)c([C@H](OC(C)(C)C)C(=O)O)c(N2CCC(C)(C)CC2)c1-c1ccc(OCc2ccccc2)cc1", "observed.value": "≥ 20 µM"}
{"molecule": "Cc1nc(C)c([C@H](OC(C)(C)C)C(=O)O)c(N2CCC(C)(C)CC2)c1-c1ccc(Oc2ccccc2)cc1", "observed.value": "≥ 20 µM"}
{"molecule": "Cc1nc(C)c([C@H](OC(C)(C)C)C(=O)O)c(N2CCC(C)(C)CC2)c1-c1ccc(OCCc2ccccc2)cc1", "observed.value": "≥ 20 µM"}
{"molecule": "Cc1nc(C)c([C@H](OC(C)(C)C)C(=O)O)c(N2CCC(C)(C)CC2)c1-c1ccc(CCCc2ccc(F)cc2)cc1", "observed.value": "≥ 32 µM"}
{"molecule": "COc1ccc(CCOc2ccc(-c3c(C)nc(C)c([C@H](OC(C)(C)C)C(=O)O)c3N3CCC(C)(C)CC3)cc2)cc1", "observed.value": "≥ 33.5 µM"}
{"molecule": "Cc1cc(CCOc2ccc(-c3c(C)nc(C)c([C@H](OC(C)(C)C)C(=O)O)c3N3CCC(C)(C)CC3)cc2)ccc1F", "observed.value": "≥ 33.5 µM"}
{"molecule": "Cc1nc(C)c(CCOc2ccc(-c3c(C)nc(C)c([C@H](OC(C)(C)C)C(=O)O)c3N3CCC(C)(C)CC3)cc2)s1", "observed.value": "≥ 25 µM"}
{"molecule": "Cc1nc(C)c([C@H](OC(C)(C)C)C(=O)O)c(N2CCC(C)(C)CC2)c1-c1ccc(OCCc2ccc(C#N)cc2)cc1", "observed.value": "≥ 33.5 µM"}
{"molecule": "Cc1nc(C)c([C@H](OC(C)(C)C)C(=O)O)c(N2CCC(C)(C)CC2)c1-c1ccc(OCCc2ccc(F)cc2F)cc1", "observed.value": "≥ 33.5 µM"}
{"molecule": "Cc1nc(C)c([C@H](OC(C)(C)C)C(=O)O)c(N2CCC(C)(C)CC2)c1-c1ccc(OCCc2cccnc2)cc1", "observed.value": "≥ 25 µM"}
{"molecule": "COc1cccc(CCOc2ccc(-c3c(C)nc(C)c([C@H](OC(C)(C)C)C(=O)O)c3N3CCC(C)(C)CC3)cc2)c1", "observed.value": "≥ 33.5 µM"}

Reference source: ChEMBL document CHEMBL5046290
